Test: changes in parasitized red cell lysis, either direction – P. falciparum Indochina, OD700, 3 h, PSAC antagonist project, primary screen (AID 1156)
Conditions: P. falciparum-infected erythrocytes, osmotic lysis, higher = more signal, called active from +8 up or from −8 down
reported-endpoint: z-score
# answer = number (no unit)

Exercise: Give z-score for the following molecule: O=C1C2C=CC(C(O)c3c(F)cccc3Cl)N(Nc3ccc([N+](=O)[O-])cc3)C2C(=O)N1c1ccccc1 (stereo not given)
Solution: 2.34

Exercise: Give z-score for the following molecule: CCOc1cc(C(O)C2C=CC3C(=O)N(c4ccccc4)C(=O)C3N2Nc2ccccc2F)ccc1O (stereo not given)
Solution: -0.0788

Exercise: Give z-score for the following molecule: C=CCNC(=O)[C@@H]1[C@H]2C(=O)O[C@H](c3ccccc3)[C@H](c3ccccc3)N2[C@H](c2ccc(OCCO)cc2)[C@@]12C(=O)Nc1ccc(C#CC3(O)CCCCCC3)cc12
Solution: 1.02

Exercise: Give z-score for the following molecule: CCCC[C@H]1OB(O)C[C@H]2C1=C(COc1ccccc1)C[C@H]1C(=O)C=CC(=O)[C@H]12
Solution: 0.129

Exercise: Give z-score for the following molecule: C=C1C(=O)C=C2CN(C(=O)c3ccccc3)[C@@](Cc3ccc(OC)cc3)(C(=O)OC)[C@@H]12
Solution: 0.218

Exercise: Give z-score for the following molecule: CN(C)CCCCNC(=O)[C@H]1C[C@H]2C(=O)NCC(=O)N2[C@H]1c1ccc(O)cc1
Solution: 0.447

Exercise: Give z-score for the following molecule: COC(=O)[C@]1(Cc2ccccc2)N=C(c2ccc(OCCCO)cc2)O[C@@H]1c1ccccc1CN=[N+]=[N-]
Solution: 0.765

Exercise: Give z-score for the following molecule: N#Cc1ccc(NN2C(C(O)C3CC=CCC3)C=CC3C(=O)N(c4ccccc4)C(=O)C32)cc1 (stereo not given)
Solution: 0.889

Exercise: Give z-score for the following molecule: O=C1N(Cc2ccccc2)c2ccccc2C[C@@]12COC(c1ccc(OCCCO)cc1)=N2
Solution: 3.4

Exercise: Give z-score for the following molecule: COc1ccc(CCNC(=O)[C@@H]2c3ccccc3C(=O)N(Cc3ccccc3OC)[C@H]2c2ccc(CO)cc2)cc1
Solution: 0.709

Exercise: Give z-score for the following molecule: CCOC(=O)c1cn(C[C@H](Cc2ccccc2)NC(=O)N[C@H](CO)CCc2oc(C(C)=O)c(C(=O)OC)c2C(=O)OC)nn1
Solution: 0.661

Exercise: Give z-score for the following molecule: C[C@@H]1NC(=O)C([C@@H](C)OCc2ccccc2)NC(=O)[C@@]23C(=O)N[C@@H](Cc4ccccc4)C2[C@H](C)[C@@]2(C)O[C@H]2C3/C=C/C/C=C\CNC1=O (stereo not given in full)
Solution: 0.604

Exercise: Give z-score for the following molecule: C=C(CCCC)/C(=C/C[C@H](OC(=O)c1ccncc1)c1cccc(OCCO)c1)c1cnc2ccccc2c1
Solution: 1.5

Exercise: Give z-score for the following molecule: COc1ccc([Si](C)(C)[C@@H]2[C@@H](CC(=O)N(CCO)Cc3ccccc3)O[C@]3(C(=O)N(Cc4ccc(N5C(=O)c6cccc7cccc5c67)cc4)c4ccccc43)[C@H]2C)cc1
Solution: 0.296

Exercise: Give z-score for the following molecule: O=C1C2C=CC(C(O)c3cccs3)N(Nc3ccc([N+](=O)[O-])cc3)C2C(=O)N1c1ccccc1 (stereo not given)
Solution: 1.75

----------
Test: probe aLefty1 binding on compound microarray – biochemical, small-molecule microarray, 635/667 nm fluorescence, primary screen (AID 1153);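 also: score merges spot fluorescence with signal-to-noise ratio from the scanned slide images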
Conditions: higher = more signal
Tick T if composite z-score is 0.3 or greater. Tick F if composite z-score is less than 0.3.

Sample answers from the record:
{"compound": "COC(=O)c1cccc([C@H]2OC(=CC(=O)OC(C)C)C[C@@H](c3cccc(C(=O)OC)c3)O2)c1", "class": "T"}
{"compound": "CCCN1C(=O)[C@]2(CCC(=O)OC(C)(C)C)N=C(c3ccc(OCCCO)cc3)O[C@@H]2c2ccccc21", "class": "F"}

Attention now turns to another entry.
Exercise: Textbook exercise: given the entry C=CCC(OC(C)=O)[C@@H]1[C@@H](N(Cc2cccc3ccccc23)C(=O)c2ccc(-c3ccccc3)cc2)c2cc(OCCCO)ccc2N1C(=O)Cc1ccc2ccccc2c1 (some centres undefined) , state whether its composite z-score is greater than or equal to 0.3.
Solution: F

----------
# maps each entry to its z-score
Assay: JC-1 mitochondrial signal, unstimulated MM1S myeloma – cell-based, JC-1 fluorescence, 24 h, 100 nL compound, profiling panel (AID 1170); also: test concentration not given here
Conditions: MM1S mitochondrial potential, higher = more signal
# answer = number (no unit)

{"compound": "C=C(CCCC)/C(=C/C[C@H](OC(C)=O)c1cccc(OCCO)c1)c1cnc2ccccc2c1", "numeric-readout": -0.209}
{"compound": "C=C1C(=O)C=C2CN(C(=O)c3ccccc3)[C@@](Cc3ccc(OC)cc3)(C(=O)OC)[C@@H]12", "numeric-readout": -1.74}
{"compound": "Cc1ccc(S[C@]2(C(=O)NCCCN(C)C)CC(=O)N(Cc3ccccc3C(F)(F)F)[C@@H]2c2ccc(CO)cc2I)cc1", "numeric-readout": -1.35}

Exercise: Give z-score for the following compound: CC(C)=CCCC(C)=CC(O)C1C=CC2C(=O)NC(=O)C2N1Nc1ccccn1 (stereo not given)
Solution: 0.0809

Exercise: Give z-score for the following compound: NC(=O)N1C(=O)C2C(C1=O)C1C=C(CCCO)C2C(C2CC2)N1Cc1sc2ccccc2c1Cl (stereo not given)
Solution: 0.193

----------
Molecular target: Neurogenic locus notch homolog protein 2 (Homo sapiens)
Assay: small molecules binding Notch2 protein – biochemical, small-molecule microarray, 635 nm fluorescence, stem cell growth factors, primary screen (AID 1073)
Settings: higher = more signal
Entries are grouped by composite z-score into these classes: lower band = under 0.2, central band = from 0.2 up to 1, upper band = 1 and over

{"molecule": "COC(=O)C(CC#Cc1ccc2c(c1)[C@]1(C(=O)N2)[C@H](C(=O)NC[C@H](O)c2ccccc2)[C@H]2C(=O)O[C@H](c3ccccc3)[C@H](c3ccccc3)N2[C@@H]1c1ccccc1OCCO)C(=O)OC", "class": "upper band"}

Exercise: Band assignment needed for C=C(C)[C@@H]1CC=C(C(O)C2C=CC3C(=O)N(c4ccccc4)C(=O)C3N2Nc2ccc([N+](=O)[O-])cc2)CC1 (stereo not given in full) please.
Solution: upper band

Exercise: Band assignment needed for C=C(COC)/C(=C/C[C@H](OC(C)=O)c1ccccc1OCCO)c1cc(C(=O)OC)ccc1OC please.
Solution: lower band

Exercise: Band assignment needed for COCCOC(=O)N1C(=O)[C@@]2(c3cc(C#CCC(C(=O)OC)C(=O)OC)ccc31)[C@H](c1ccc(O)cc1)N1[C@H](c3ccccc3)[C@H](c3ccccc3)OC(=O)[C@H]1[C@@H]2C(=O)Nc1nc2ccccc2s1 please.
Solution: upper band

Exercise: Band assignment needed for CO[C@H]1O[C@H](CO)[C@@H](OC(=O)Nc2ccccc2-c2ccccc2)[C@H](OC(=O)Nc2ccccc2)[C@H]1OC(=O)Nc1ccccc1 please.
Solution: upper band

Exercise: Band assignment needed for Cc1ccc(C(C)CC(O)C2C=CC3C(=O)N(C)C(=O)C3N2Nc2ccccc2)o1 (stereo not given) please.
Solution: upper band

Exercise: Band assignment needed for NC(=O)N1C(=O)C2C(C1=O)C1C=C(CCCO)C2C(c2ccc(CN3CCCC3)cc2)N1Cc1sc2ccccc2c1Cl (stereo not given) please.
Solution: lower band

Exercise: Band assignment needed for CCCC#C[Si](O[C@H](CC)c1cn(Cc2ccccc2)nn1)(C(C)C)C(C)C please.
Solution: central band

Exercise: Band assignment needed for N#Cc1ccc(C(O)C2C=CC3C(=O)NC(=O)C3N2Nc2ccc(Cl)cc2Cl)cc1 (stereo not given) please.
Solution: upper band

Exercise: Band assignment needed for CCCC[C@H]1C[C@@H]1[C@@H]1N(C(C)=O)[C@H](c2cccc(OC)c2)CC12CC2 please.
Solution: central band

Exercise: Band assignment needed for CC1=C([C@H](O)CCc2ccccc2)[C@H](CO)n2c(=O)n(-c3ccccc3)c(=O)n2C1 please.
Solution: lower band

Exercise: Band assignment needed for CCOC(=O)C1=CCC(c2cc3ccccc3[nH]2)N(CCN2CC(C(=O)OCC)=CCC2c2cc3ccccc3[nH]2)C1 (stereo not given) please.
Solution: upper band

Exercise: Band assignment needed for CCCCCC1=C2CNC(Cc3ccccc3)(C(=O)OC)C=C2C(C)C1=O (stereo not given) please.
Solution: central band

Exercise: Band assignment needed for CC(C)(C)N1CC=CC23O[C@@H]4C=CCOC(=O)[C@@H]4[C@H]2C(=O)N(CCO)[C@@H]3C1=O (stereo not given in full) please.
Solution: lower band

Exercise: Band assignment needed for COc1ccc(C(=O)Nc2ccc3c(c2)[C@@]2(O[C@H](CCO)[C@@H]([Si](C)(C)c4ccc(OC)cc4)[C@@H]2C)C(=O)N3Cc2ccccc2)cc1 please.
Solution: central band

Exercise: Band assignment needed for CCCC=C(CCC)[C@@H](NC(=O)OCC(C)C)c1ccc(C(=O)OC)cc1 please.
Solution: central band

Exercise: Band assignment needed for CN1C(=O)[C@@H]2[C@@H](CC(COc3ccccc3)=C3[C@@H](CCc4ccccc4)OB(O)C[C@@H]32)C1=O please.
Solution: central band

Exercise: Band assignment needed for COC(=O)c1cccc([C@H]2OC(=CC(=O)OC(C)C)C[C@@H](c3cccc(C(=O)OC)c3)O2)c1 please.
Solution: upper band

Exercise: Band assignment needed for COc1cc(C(O)C2C=CC3C(=O)N(c4ccccc4)C(=O)C3N2Nc2ccccc2F)cc(OC)c1OC (stereo not given) please.
Solution: upper band

Exercise: Band assignment needed for COCCCN1C(=O)[C@@]2(c3ccc([N+](=O)[O-])cc3)CC(=O)N(CC34CC5CC(CC(C5)C3)C4)[C@@H]2c2ccc(CO)cc21 please.
Solution: lower band

Exercise: Band assignment needed for CC(C)=CCCC=C(C)C(O)C1C=CC2C(=O)N(c3ccccc3)C(=O)C2N1Nc1ccc(C#N)cc1 (stereo not given) please.
Solution: upper band
